Attribution: patent US4609736A

- TGT: aldose reductase (Rattus norvegicus)
- Construct: the supernatant was used as the crude enzyme solution
- TEST: Aldose reductase inhibiting activity
- CONDITION DETAILS: rat lens crude enzyme; DL-glyceraldehyde 10 mM, NADPH 0.104 mM, pH 6.2; Table 3; read-out: IC50 (50% inhibition concentration), aldose reductase
Overview of reported pIC50 across a group of compounds:
Scale explanation: pIC50 corresponds to minus log10 of a concentration expressed in moles per litre.

Here's what some known entries look like.
>  <QUERY SMILES>
CC=CC=CC=C1SC(=S)N(CC(=O)O)C1=O

>  <TGT>
aldose reductase (Rattus norvegicus)

>  <pIC50>
7.34

$$$$
>  <QUERY SMILES>
CC(C)=CCCC(C)=CCCC(C)=CCCC(C)=CC=C1SC(=S)N(CC(=O)O)C1=O

>  <TGT>
aldose reductase (Rattus norvegicus)

>  <pIC50>
6.19

$$$$
>  <QUERY SMILES>
CC(C)=CC=C1SC(=S)N(CC(=O)O)C1=O

>  <TGT>
aldose reductase (Rattus norvegicus)

>  <pIC50>
7.00

$$$$
>  <QUERY SMILES>
CC=CC=C1SC(=S)N(CC(=O)O)C1=O

>  <TGT>
aldose reductase (Rattus norvegicus)

>  <pIC50>
7.15

$$$$
>  <QUERY SMILES>
CC(C)(C)C=C1SC(=S)N(CC(=O)O)C1=O

>  <TGT>
aldose reductase (Rattus norvegicus)

>  <pIC50>
7.00

$$$$
>  <QUERY SMILES>
CCCCCC=C1SC(=S)N(CC(=O)O)C1=O

>  <TGT>
aldose reductase (Rattus norvegicus)

>  <pIC50>
6.89

$$$$

So, CCCCCCCCCCC=C1SC(=S)N(CC(=O)O)C1=O ? Its pIC50 was 6.52

Value of measured pIC50 for the entry O=C(O)CN1C(=O)C(=CCCCCl)SC1=S : 6.85

For this compound ( C=CC=C1SC(=S)N(CC(=O)O)C1=O ), measured pIC50 is 6.12
